Experimental Details: cells
Assay type: functional
Active and inactive are the calls of the source. How the calls were made is not given here.
Property: IC50

Recorded IC50, per entry:
c1ccc2[nH]c(NC3=NCCC3)nc2c1 | 12.2 µM (active)
O=[N+]([O-])c1cccnc1N/N=C/c1ccccc1O | 3.92 µM (active)
Cc1cccc(NCCC(=O)c2ccc([N+](=O)[O-])cc2)c1C | 18 µM (active)
Cn1nnnc1Sc1ncnc2scc(-c3ccc[nH]3)c12 | 15.2 µM (active)
Clc1cccc(/C=N\Nc2nccs2)c1 | 12.7 µM (active)
COc1cc(CNC(C)(C)CO)cc(Br)c1OCc1ccc(Cl)cc1Cl | 16.7 µM (active)

For the next question, use this molecule.
Return IC50 for the following molecule: CCc1ccc(NC(=O)COc2ccc3c(c2)OCO3)cc1 > 50 µM (active)
